Every entry's value here was drawn from PubChem BioAssay (NCATS).

- Protocol summary: qHTS Assay for Lipid Storage Modulators (AID 1519)
- Stated conditions: Drosophila S3 cells, BODIPY lipid droplet/cell ratio, laser cytometry; measured here: lipid channel max response; cells loaded with oleic acid
Records with an inconclusive call do not appear.
Quantity: max response (%)
Report the figure in % without appending any unit label.

Challenge: max response for c1cnc(N2CCC3(CCNCC3)CC2)nc1 ?
Response given: 23.4

Challenge: max response for COc1c(CC=C(C)C)c2c(c3oc(=O)c(-c4ccc(O)cc4)c(O)c13)C=CC(C)(C)O2 ?
Response given: 15.5

Challenge: max response for CC1CC[C@@]2(NC1)O[C@@H]1C[C@H]3C4CC=C5C[C@@H](O)CC[C@]5(C)C4CC[C@]3(C)[C@H]1[C@@H]2C (some centres not stated) ?
Response given: 6.71

Challenge: max response for CCN1C[C@]2(C)CC[C@H](O)[C@@]34[C@@H]5C[C@@H]6[C@@H](OC)C[C@@](O)(C5[C@H]6O)[C@@H](C[C@@H]23)[C@@H]14 ?
Response given: -16.8

Challenge: max response for CC[C@@H]1[C@@H]2C[C@H]3[C@H]4N(C)c5ccccc5[C@@]45C[C@@H]([C@@H]2[C@@H]5O)N3[C@H]1O ?
Response given: 1.93

Challenge: max response for CCN1C[C@@]2(COC)CC[C@H](O)[C@@]34[C@@H]2C[C@@H]([C@@H]13)[C@]1(O)C[C@@H](OC)C2C[C@H]4[C@H]1[C@H]2OC(C)=O ?
Response given: -5.05

Challenge: max response for CC(C)(O)[C@@H]1C2OC(=O)[C@@H]1[C@]1(O)C[C@H]3O[C@]34C(=O)O[C@H]2[C@]14C ?
Response given: 5.39

====

- Protocol summary: NFAT Signaling Pathway (AID 444);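 also: carbachol stimulus at about its EC50 of 1 µM final; % is scaled to controls: 0 for no effect and ±100 for the full control effect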
- Stated conditions: Jurkat NFAT-bla M1, carbachol, beta-lactamase ratio, 5 h; at 17.2 µM (top of the series)
Inconclusive results are not listed. Activity calls are given as the source filed them. Calls come from the whole dose curve; as a rule, active = well fitted curve in either direction with a large enough effect (not every such curve was filed as active); inconclusive = small, poorly fitted or top-dose-only effect, or another doubt; inactive = flat fitted curve, though single readings scatter.
Can you answer with just one of these options? 1 = active, 0 = inactive

Challenge: Which outcome did this test record for the molecule CC(=O)O[C@H]1CC[C@@]2(C)C(=CC[C@@H]3[C@H]2CC[C@]2(C)C(=O)CC[C@H]32)C1 ?
Response given: 0

Challenge: Which outcome did this test record for the molecule C[C@H]1CC[C@@H]2[C@@H](C)C(=O)O[C@H]3O[C@@]4(C)CC[C@H]1[C@@]32OO4 ?
Response given: 0

Challenge: Which outcome did this test record for the molecule CC[C@H](C)C(=O)O[C@@H]1[C@H](O)[C@@H]2[C@H](CN3C[C@@H](C)CC[C@@H]3[C@@]2(C)O)[C@@H]2C[C@@]34O[C@@]5(O)[C@@H](OC(=O)[C@](C)(O)CC)CC[C@@]3(C)[C@H]5[C@H](OC(C)=O)[C@@H](OC(C)=O)[C@H]4[C@]12O ?
Response given: 0

Challenge: Which outcome did this test record for the molecule CC1=C2[C@@H]3OC(=O)[C@@H](C)[C@@H]3CC[C@]2(C)C=CC1=O ?
Response given: 0

Challenge: Which outcome did this test record for the molecule Nc1c(C(=O)NCc2ccco2)c2nc3ccccc3nc2n1Cc1ccc(F)cc1 ?
Response given: 1

Challenge: Which outcome did this test record for the molecule COc1cc2c(cc1O)C[C@H]1c3c(cc(O)c(OC)c3-2)CCN1C ?
Response given: 0

Challenge: Which outcome did this test record for the molecule NC[C@H](O)c1ccc(O)cc1 ?
Response given: 0

Challenge: Which outcome did this test record for the molecule Clc1ccc([C@@H](OCCN2CCCCC2)c2ccccc2)cc1 ?
Response given: 1

====

- Tgt: ATP-dependent 6-phosphofructokinase (Trypanosoma brucei brucei) (UniProt O15648)
- Sequence (O15648 whole entry, looked up): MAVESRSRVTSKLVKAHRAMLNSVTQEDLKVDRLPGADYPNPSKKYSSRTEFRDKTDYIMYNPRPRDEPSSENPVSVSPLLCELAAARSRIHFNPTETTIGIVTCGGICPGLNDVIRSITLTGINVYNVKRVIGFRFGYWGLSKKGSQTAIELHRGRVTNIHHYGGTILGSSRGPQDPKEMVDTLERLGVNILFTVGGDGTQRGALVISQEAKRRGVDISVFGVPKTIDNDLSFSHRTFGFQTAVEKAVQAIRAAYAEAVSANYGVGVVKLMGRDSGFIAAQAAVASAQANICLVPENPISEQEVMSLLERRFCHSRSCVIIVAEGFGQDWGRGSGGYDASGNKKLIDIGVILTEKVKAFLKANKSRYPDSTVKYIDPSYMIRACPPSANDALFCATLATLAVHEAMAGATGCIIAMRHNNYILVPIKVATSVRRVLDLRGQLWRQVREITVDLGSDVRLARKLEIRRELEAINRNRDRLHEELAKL
- Protocol summary: qHTS Assay to Find Inhibitors of T. brucei phosphofructokinase: hit validation (AID 492961);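 also: luminescence reports ADP formed as PFK phosphorylates fructose-6-phosphate with ATP; % is scaled to controls: 0 for no effect and ±100 for the full control effect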
- Stated conditions: T. brucei PFK, ADP-Glo luminescence; series mostly up to 51.4 µM
Inconclusive results are not listed. Calls of active or inactive are those of the source. Calls follow the shape of the dose curve; as a rule, active = well fitted inhibition curve with a large enough effect; inconclusive = small, poorly fitted or top-dose-only effect, or effect the other way; inactive = flat fitted curve, though single readings scatter.
Quantity: outcome

Challenge: Hi! What's the reported outcome for C[C@@]12CCC(=O)C=C1C=C[C@H]1[C@H]3CC[C@](O)(CCC(=O)O)[C@]3(C)CC[C@@H]12 on ATP-dependent 6-phosphofructokinase (Trypanosoma brucei brucei) (UniProt O15648)?
Response given: inactive

Challenge: Hi! What's the reported outcome for CC(=O)OC1C[C@H](O[C@@H]2C(O)C[C@H](O[C@@H]3C(O)C[C@@H](OC4CC[C@]5(C)C(CCC6C5CC(O)[C@@]5(C)C(C7=CC(=O)OC7)CC[C@@]65O)C4)OC3C)OC2C)O[C@H](C)[C@H]1O[C@H]1OC(CO)C(O)C(O)C1O (stereo partly drawn) on ATP-dependent 6-phosphofructokinase (Trypanosoma brucei brucei) (UniProt O15648)?
Response given: inactive

Challenge: Hi! What's the reported outcome for CCCC[N+]1(C)C2CC(OC(=O)C(CO)c3ccccc3)CC1C1OC12 (stereo not drawn) on ATP-dependent 6-phosphofructokinase (Trypanosoma brucei brucei) (UniProt O15648)?
Response given: inactive

====

- Test system: CP265
- Protocol summary: qHTS profiling for inhibitors of Plasmodium falciparum proliferation (AID 504749);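 also: 0% = DMSO vehicle and full inhibition = artemisinin control; nearly all actives have a fitted effect of over 60% in size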
- Stated conditions: P. falciparum in erythrocytes, SYBR Green DNA, 72 h; series mostly up to 12.8 µM
Records with an inconclusive call do not appear. Calls of active or inactive are those of the source. Calls follow the shape of the dose curve; as a rule, active = well fitted inhibition curve with a large enough effect; inconclusive = small, poorly fitted or top-dose-only effect; inactive = flat fitted curve, though single readings scatter.
Quantity: outcome

Challenge: outcome for COc1cc2c(cc1OC)[C@@]13CCN4CC5=CCOC6CC(=O)N2C1[C@H]6[C@@H]5C[C@@H]43 (stereo partly drawn) ?
Response given: inactive

Challenge: outcome for CNc1ccc(C(=O)CC(O)CCC(C)C2OC(=O)CC(O)CC(=O)CC(O)CC(O)CC(O)CC(O)CC3(O)CC(O)C(C(=O)OC)C(CC(O[C@@H]4OC(C)C(O)C(N)C4O)/C=C/C=C/C=C/C=C/C=C/C=C/C=C/C2C)O3)cc1 (stereo partly drawn) ?
Response given: inactive

Challenge: outcome for C[C@H]1CN(C2CCC(C#N)(c3ccc(F)cc3)CC2)CC[C@@]1(C(=O)O)c1ccccc1 (stereo partly drawn) ?
Response given: inactive

====

- Protocol summary: Dual reporter qHTS for antagonist of Pregnane X Receptor (hPXR) against the NCATS DSHEA and TCM libraries: Fluorescence Readout (AID 1920061); also: 0% is about no effect
- Stated conditions: PXR dual reporter cells, antagonist mode; series mostly up to 40 µM
Records with an inconclusive call do not appear. Calls of active or inactive are those of the source. Calls follow the shape of the dose curve; as a rule, active = well fitted curve in the direction sought with a large enough effect; inconclusive = small, poorly fitted or top-dose-only effect, or another doubt; inactive = no such curve, though single readings can be large or run the other way.
Quantity: outcome

// solved cases for outcome follow
Challenge: outcome for N#CC(O[C@@H]1O[C@H](CO[C@@H]2O[C@H](CO)[C@@H](O)[C@H](O)[C@H]2O)[C@@H](O)[C@H](O)[C@H]1O)c1ccccc1 (some centres undefined) ?
Response given: inactive

Challenge: outcome for CC[C@@H]1CN2CC[C@]3(C(=O)Nc4ccccc43)[C@@H]2C[C@@H]1/C(=C\OC)C(=O)OC ?
Response given: inactive

Challenge: outcome for COC1=C[C@@]23CCN(C)[C@H](Cc4ccc(OC)c(O)c42)C3=CC1=O ?
Response given: inactive

Challenge: outcome for COc1cc2c(cc1O)CC1NCCc3cc(OC)c(OC)c-2c31 (centres undefined) ?
Response given: inactive

Challenge: outcome for O=S(=O)(O)O ?
Response given: inactive

Further cases:
Challenge: outcome for COc1cc2c(cc1O)CC1c3c(cc(O)c(OC)c3-2)CCN1C (centres undefined) ?
Response given: inactive

Challenge: outcome for C=C[C@H]1CN2CCc3c([nH]c4ccccc34)[C@H]2C[C@@H]1/C(=C\OC)C(=O)OC ?
Response given: inactive

Challenge: outcome for C=C[C@H]1CN2CC[C@@]3(C(=O)Nc4ccccc43)[C@@H]2C[C@@H]1/C(=C\OC)C(=O)OC ?
Response given: inactive

Challenge: outcome for COc1ccc2c(c1O)-c1c(OC)c(OC)cc3c1[C@H](C2)N(C)CC3 ?
Response given: inactive

====

- Protocol summary: Confirmatory qHTS to identify inhibitors of SARS-CoV-2 cell entry (AID 1645844); also: nearly all actives have a fitted effect of over 45% in size
- Stated conditions: SARS-CoV-2 pseudotyped particle cell entry, luciferase; series mostly up to 57.2 µM
Results filed as inconclusive are left out. Calls of active or inactive are those of the source. Calls follow the shape of the full dose curve.
Can you answer with just one of these options? active, inactive

Challenge: Which outcome did this test record for the compound CC[C@H]1OC(=O)[C@H](C)[C@@H](O[C@H]2C[C@@](C)(OC)[C@@H](O)[C@H](C)O2)[C@H](C)[C@@H](O[C@@H]2O[C@H](C)C[C@H](N(C)C)[C@H]2O)[C@](C)(O)C[C@@H](C)CN(C)[C@H](C)[C@@H](O)[C@]1(C)O ?
Response given: active

Challenge: Which outcome did this test record for the compound CC[C@@]1(O)C(=O)OCc2c1cc1n(c2=O)Cc2cc3c([N+](=O)[O-])cccc3nc2-1 ?
Response given: active

Challenge: Which outcome did this test record for the compound COC[C@H]1C[C@@H](c2ncc(-c3ccc4c(c3)COc3cc5c(ccc6[nH]c([C@@H]7CC[C@H](C)N7C(=O)[C@@H](NC(=O)OC)C(C)C)nc65)cc3-4)[nH]2)N(C(=O)[C@H](NC(=O)OC)c2ccccc2)C1 ?
Response given: active

Challenge: Which outcome did this test record for the compound C=C1C[C@@H]2CC[C@@]34C[C@H]5O[C@H]6[C@@H](O3)[C@H]3O[C@H](CC[C@@H]3O[C@H]6[C@H]5O4)CC(=O)C[C@@H]3[C@@H](OC)[C@@H](C[C@H](O)CN)O[C@H]3C[C@H]3O[C@@H](CC[C@@H]1O2)C[C@@H](C)C3=C ?
Response given: active

Challenge: Which outcome did this test record for the compound COc1cc([C@@H]2c3cc4c(cc3[C@@H](O[C@@H]3O[C@@H]5CO[C@@H](C)O[C@H]5[C@H](O)[C@H]3O)[C@H]3COC(=O)[C@H]23)OCO4)cc(OC)c1OP(=O)(O)O ?
Response given: active

Challenge: Which outcome did this test record for the compound CCCCNc1ncc(-c2ccc(CN3CCOCC3)cn2)c(NC2CCC(O)CC2)n1 (stereo not given) ?
Response given: active

Challenge: Which outcome did this test record for the compound CC(CN(C)C)CN1c2ccccc2Sc2ccc(C(F)(F)F)cc21 (stereo not given) ?
Response given: active

Challenge: Which outcome did this test record for the compound O=C1[C@@H]2[C@H]3CC[C@H](C3)[C@@H]2C(=O)N1C[C@@H]1CCCC[C@H]1CN1CCN(c2nsc3ccccc23)CC1 ?
Response given: active

Challenge: Which outcome did this test record for the compound O=c1[nH]c([C@@H]2CCCN2)nc2c1oc1ccc(Cl)cc12 ?
Response given: active

Challenge: Which outcome did this test record for the compound COc1ccc(N(C)c2nc(C)nc3ccccc23)cc1 ?
Response given: active

Challenge: Which outcome did this test record for the compound CC[C@]1(O)CC2CN(CCc3c([nH]c4ccccc34)[C@@](C(=O)OC)(c3cc4c(cc3OC)N(C)[C@H]3[C@@](O)(C(=O)OC)[C@H](OC(C)=O)[C@]5(CC)C=CCN6CC[C@]43[C@@H]65)C2)C1 (stereo not given in full) ?
Response given: active

Challenge: Which outcome did this test record for the compound Nc1ccn([C@@H]2C(F)=C(CO)[C@@H](O)[C@H]2O)c(=O)n1 ?
Response given: active

Challenge: Which outcome did this test record for the compound COc1cc2c3c(n(CCCn4ccnc4)c(=O)c2cc1OC)-c1cc2c(cc1C3=O)OCO2 ?
Response given: active

Challenge: Which outcome did this test record for the compound CS(=O)(=O)c1ccc(-c2cnc(NCc3ccco3)n3cnnc23)cc1 ?
Response given: active

Challenge: Which outcome did this test record for the compound Cn1cc(C2=C(c3cn(C)c4cc([N+](=O)[O-])ccc34)C(=O)NC2=O)c2ccccc21 ?
Response given: active

Challenge: Which outcome did this test record for the compound O=C1NC(=O)[C@@H](c2c[nH]c3ccccc23)[C@H]1c1cn2c3c(cccc13)CCC2 ?
Response given: active

Challenge: Which outcome did this test record for the compound O=C(O)c1ccc(-c2c[nH]c3ncc(-c4ccccc4)cc23)cc1C1CCCC1 ?
Response given: active

Challenge: Which outcome did this test record for the compound CO[C@@H]1[C@H](C)OC(O[C@H]2CC(Oc3cc4cc5c(c(O)c4c(O)c3C)C(=O)[C@@H](OC3C[C@@H](OC4C[C@H](OC6C[C@](C)(O)[C@@H](OC(C)=O)[C@H](C)O6)[C@@H](O)[C@H](C)O4)[C@H](O)[C@@H](C)O3)[C@H]([C@@H](OC)C(=O)[C@@H](O)[C@H](C)O)C5)O[C@@H](C)[C@H]2OC(C)=O)C[C@@H]1O (stereo not given in full) ?
Response given: active

Challenge: Which outcome did this test record for the compound CNC(=O)c1cccc(-c2ccc3c(N4CCOC[C@@H]4C)nc(N4CCOC[C@@H]4C)nc3n2)c1 ?
Response given: active

Challenge: Which outcome did this test record for the compound CO[C@H](C(=O)[C@@H](O)[C@@H](C)O)C1Cc2cc3cc(O[C@H]4C[C@@H](O[C@H]5C[C@@H](O)[C@H](O)[C@@H](C)O5)[C@@H](O)[C@@H](C)O4)c(C)c(O)c3c(O)c2C(=O)[C@H]1O[C@H]1C[C@@H](O[C@H]2C[C@@H](O[C@H]3C[C@](C)(O)[C@H](O)[C@@H](C)O3)[C@H](O)[C@@H](C)O2)[C@H](O)[C@@H](C)O1 (stereo not given in full) ?
Response given: active

Challenge: Which outcome did this test record for the compound CCN1CCN(Cc2ccc(Nc3ncc(F)c(-c4cc(F)c5nc(C)n(C(C)C)c5c4)n3)nc2)CC1 ?
Response given: active

Challenge: Which outcome did this test record for the compound Cc1c(N)nc(C(CC(N)=O)NCC(N)C(N)=O)nc1C(=O)NC(C(=O)NC(C)C(O)C(C)C(=O)NC(C(=O)NCCc1nc(-c2nc(C(=O)NCCCN[C@@H](C)c3ccccc3)cs2)cs1)C(C)O)C(O[C@@H]1O[C@@H](CO)[C@@H](O)[C@H](O)[C@@H]1O[C@H]1O[C@H](CO)[C@@H](O)[C@H](OC(N)=O)[C@@H]1O)c1cnc[nH]1 (stereo not given in full) ?
Response given: active

Challenge: Which outcome did this test record for the compound O=C(NCc1ccccc1)[C@H](Cc1ccccc1)NC(=O)[C@H]1O[C@@H]1C(=O)NCCc1ccc(O)cc1 ?
Response given: active

Challenge: Which outcome did this test record for the compound CN(C)C(=O)c1cc2cnc(Nc3ccc(N4CCNCC4)cn3)nc2n1C1CCCC1 ?
Response given: inactive

Challenge: Which outcome did this test record for the compound CN(C)CCCOc1ccc(-c2ccc3ncc4c(c3c2)n(C2CCOCC2)c(=O)n4C)cn1 ?
Response given: active
